Tested on: BT-549 breast
measurement description: NCI-60 one-dose screen, 48 h
measurement setup: 10 µM unless noted
The panel holds about 83,000 compounds, 20% with a hit somewhere; the sample as a whole holds those more often. Calls of active or inactive are those of the source. Rule for the calls: active = growth percent below 10; inactive = the rest.
Choose one outcome from this list and give only that: True = active, False = inactive

These solved cases illustrate the format of a correct answer.
1. CC(=O)N1c2ccccc2NC2=C(C(=O)N(Cc3ccccc3)C2(C)C)C1c1ccco1 (centres undefined) = False
2. O=C(N/N=C/c1ccncc1)c1ccccc1Nc1cccc(C(F)(F)F)c1 = False
3. CNC(=O)NCC1OC(n2cnc3c(NC(=O)Nc4ccccc4)ncnc32)C(O[Si](C)(C)C(C)(C)C)C1O[Si](C)(C)C(C)(C)C (centres undefined) = False

Task: What classification did c1ccc(-c2nn(-c3ccccc3)[n+](-c3ccccc3-c3ccccc3)n2)cc1 end up with in this test?
Output: True

Task: What classification did c1ccc(Cn2nc3c(c2-c2ccccc2)-c2oncc2CC3)cc1 end up with in this test?
Output: False

Task: What classification did COc1ccc(C(=O)c2cc3c(N)c(C(=O)Nc4cccc(Cl)c4C)sc3nc2C)cc1 end up with in this test?
Output: False

Task: What classification did C/C(=C(/c1ccccc1)c1ccc(OCC(O)CN2CCOCC2)cc1)c1ccccc1 (centres undefined) end up with in this test?
Output: False

Task: What classification did FC(F)(F)c1cccc(Oc2ccc(Nc3ncnc4ccc(OCCCN5CCOCC5)cc34)cc2Cl)c1 end up with in this test?
Output: False

Task: What classification did O=C(Nc1ccc2ncnc(Nc3ccc(Oc4cccc(F)c4)c(Cl)c3)c2c1)c1ccc(CNCCO)cc1 end up with in this test?
Output: False
